system: 636577-100-R-J1-PDC complex spheroid viability; test: Anticancer human tumor 636577-100-R-J1-PDC patient-derived endometrial adenocarcinoma cell line growth inhibition [GQUAD]; conditions: second compound 0.1 µM; first compound 3.16 µM; active compounds read low;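 note: luminescence signal used as a proxy for viable cells; viability read after seven days of drug exposure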
Threshold check on viability, T/C: strictly below 10% is MET; on or above 10% is NOT MET.

>  <COMPOUND>
C=CCn1c(=O)c2cnc(Nc3ccc(N4CCN(C)CC4)cc3)nc2n1-c1cccc(C(C)(C)O)n1 + Cc1[nH]c2ccc(F)cc2c1-c1nc2c3cccnc3c3ncccc3c2[nH]1

>  <GROUP_LABEL>
NOT MET

$$$$
>  <COMPOUND>
CC1COCCN1c1cc(C2(O)CC3CCC(C2)O3)c2cnn(-c3ccn[nH]3)c2n1 (stereo unspecified) + Cc1[nH]c2ccc(F)cc2c1-c1nc2c3cccnc3c3ncccc3c2[nH]1

>  <GROUP_LABEL>
MET

$$$$
>  <COMPOUND>
CC(=O)O[C@H]1C(=O)[C@@]2(C)[C@H]([C@H](OC(=O)c3ccccc3)[C@]3(O)C[C@H](OC(=O)[C@H](O)[C@@H](NC(=O)c4ccccc4)c4ccccc4)C(C)=C1C3(C)C)[C@]1(OC(C)=O)CO[C@@H]1C[C@@H]2O + Cc1cnc(CNC(=O)c2c(=O)c3ccc(N4CCCN(C)CC4)nc3n3c2sc2ccccc23)cn1

>  <GROUP_LABEL>
NOT MET

$$$$
>  <COMPOUND>
COc1ccc([C@@H](O)c2cc(-c3ncnc4cc(N5CCOCC5)ccc34)c(F)cc2Cl)nn1 + Cc1cnc(CNC(=O)c2c(=O)c3ccc(N4CCCN(C)CC4)nc3n3c2sc2ccccc23)cn1

>  <GROUP_LABEL>
NOT MET

$$$$
>  <COMPOUND>
Cc1cccc(N(C)C(=O)C2C(O)CCN2c2nc(C)cc(C(F)(F)F)c2C#N)c1 (stereo unspecified) + Cc1[nH]c2ccc(F)cc2c1-c1nc2c3cccnc3c3ncccc3c2[nH]1

>  <GROUP_LABEL>
NOT MET

$$$$
>  <COMPOUND>
CC(C)(O)C1CCC(Nc2ccc3ncc(-c4cccc(C(F)(F)F)c4)n3n2)CC1 (stereo unspecified) + Cc1cnc(CNC(=O)c2c(=O)c3ccc(N4CCCN(C)CC4)nc3n3c2sc2ccccc23)cn1

>  <GROUP_LABEL>
NOT MET

$$$$
